Entry source: patent US20230126447A1

# protocol: Ocular tissue and plasma pharmacokinetics, 50 mg/kg BID oral, Dutch Belted rabbits (Example 4/5)
# Format: in vivo
# condition info: male, Dutch Belted, po; Retina, DB rabbit, 50 mg/kg BID, Day 15
measurement label: half-life (h)
Return type: number; implicit unit h.

Return value of half-life for input `CC(=O)c1nn(CC(=O)N2C[C@H](F)C[C@H]2C(=O)Nc2cccc(Br)n2)c2ccc(-c3cnc(C)nc3)cc12` , no commentary.
96.1

---

# protocol: Ocular tissue and plasma pharmacokinetics, 50 mg/kg BID oral, Dutch Belted rabbits (Example 4/5)
# Format: in vivo
# condition info: male, Dutch Belted, po; Vitreous Humor, DB rabbit, 50 mg/kg BID, Day 15; read-out: AUClast
measurement label: AUC(0-t) (ng·h/mL)
Entry rule: numbers only, all in ng·h/mL.

Return the recorded AUC(0-t) value; entry: CC(=O)c1nn(CC(=O)N2C[C@H](F)C[C@H]2C(=O)Nc2cccc(Br)n2)c2ccc(-c3cnc(C)nc3)cc12 [Compound 1]
419
